The reported measurements were obtained from patent US12065434B2.

System: mouse hepatocytes
method-notes: In vitro metabolism of Compound 2 in mouse cryopreserved hepatocytes
Format: in vitro ADME
Set-up: key: ND Not detected.; trace: Trace: observed by HPLC/MS measurements only.; + Minor as assessed by HPLC/UV measurements; ++ moderate as assessed by HPLC/UV measurements; +++ major as assessed by HPLC/UV measurements.; * m/z 593 and m/z 505 co-eluted in rabbit hepatocytes.; ** m/z 591 c and m/z 593 were merged in human hepatocytes and Hepatopack.; *** m/z 607 and m/z 751 b were merged in rabbit hepatocytes
condition-description: mouse cryopreserved hepatocytes; HPLC/UV/MS
Source text: Male CD-1 mouse hepatocytes (lot YHL), male Wistar-Han rat hepatocytes (Celsius; product number: M000065; lot: SLA), female New Zealand rabbit hepatocytes (lot 1510147), male cryopreserved cynomolgus monkey hepatocytes (Celsius; product number: M00305; lot: DNB) and mixed-gender cryopreserved human hepatocytes (Bioreclamation; product number: S01988; lot: DCM) were obtained for the hepatocyte in-vitro assessments. […] UV absorbance was monitored with a photo-diode array detector from 220-450 nm. […]
reported-property: Relative abundance of metabolite of Compound 2, Mouse

compound="C[C@]1(c2ccc(Cl)cn2)Oc2cccc(C3CCNCC3)c2O1 [Metabolite 331]" measured_target="mouse hepatocytes" measured=+
compound="C[C@]1(c2ccc(Cl)cn2)Oc2cccc(C3CCN(Cc4nc5ccc(C(=O)O)cc5n4CC(O)CCO)CC3)c2O1 (stereo in doubt) [Metabolite 593]" measured_target="mouse hepatocytes" measured=+
compound="C[C@]1(c2ccc(Cl)cn2)Oc2cccc(C3CCN(Cc4nc5ccc(C(=O)O)cc5[nH]4)CC3)c2O1 [Metabolite 505]" measured_target="mouse hepatocytes" measured=trace
compound="C[C@]1(c2ccc(Cl)cn2)Oc2cccc(-c3cc[n+](Cc4nc5ccc(C(=O)O)cc5n4C[C@@H]4CCO4)cc3)c2O1 [Metabolite 569]" measured_target="mouse hepatocytes" measured=+
